The reported numbers originate from patent US20100104628A1.

# System: MCF7 (NET 0)
# assay_remarks: in vitro
# Assay type: cell-based, human
# run_conditions: 48 hr assay, single agent, Table 4; read-out: Cytotoxicity IC50
reported_property: IC50 (µM)
Just the number please, in µM, no unit attached.

Lab note: need IC50 for N=C(N)NCc1ccc(CCl)c(I)c1 on MCF7 (NET 0), anyone have it?
14.3

###

# System: SK-N-SH (NET ++)
# assay_remarks: Cytotoxicity, MTT assay, SK-N-SH
# Type: cell-based
# run_conditions: Homo sapiens, SK-N-SH, read-out: Cytotoxicity IC50 of melphalan, 48 hr assay, cells treated with 5 μM cmMIBG for 3 hrs, then melphalan added
reported_property: IC50 (µM)
Number in µM, nothing else.

Would you mind telling me what IC50 value was observed for N[C@@H](Cc1ccc(N(CCCl)CCCl)cc1)C(=O)O ?
38.4
